Recorded values, source patent US20190315854A1.

- subject.of.test: T1, sIL-6R (soluble IL-6 receptor; SBH Sciences) (human, UniProt P08887 20-365)
- T1 construct: also called human IL-6R
- T1 sequence: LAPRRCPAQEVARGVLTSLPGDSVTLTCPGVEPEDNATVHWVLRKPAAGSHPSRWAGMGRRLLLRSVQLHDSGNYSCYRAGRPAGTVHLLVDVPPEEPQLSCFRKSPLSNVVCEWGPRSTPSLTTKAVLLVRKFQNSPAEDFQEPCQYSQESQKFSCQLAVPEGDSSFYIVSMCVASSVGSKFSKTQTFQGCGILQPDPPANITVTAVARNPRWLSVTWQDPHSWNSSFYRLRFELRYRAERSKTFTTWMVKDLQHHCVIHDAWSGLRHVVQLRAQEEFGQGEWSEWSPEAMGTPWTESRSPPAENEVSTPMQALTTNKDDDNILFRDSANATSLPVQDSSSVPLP
- test.details: SPR (BIAcore 3000), antibody on chip, sIL-6R analyte, 25 C
Catalogue of Relative Affinity values

binder	Relative Affinity
228# (antibody, human IgG1, kappa, V domains shown, also called Sample # 228) VH: QVQLQESGPGLVRPSQTLSLTCTVSGYSITSDHAWSWVRQPPGRGLEWIGYISYSGMTTYNPSLKSRVTMLRDTSKNQFSLRLSSVTAADTAVYYCARCLARMTAIDFWGQGSLVTVSS VL: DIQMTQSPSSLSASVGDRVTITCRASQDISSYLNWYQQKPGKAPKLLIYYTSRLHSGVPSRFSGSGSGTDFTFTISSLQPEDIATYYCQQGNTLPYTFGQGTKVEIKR	15.5 fold vs 25 (Tocilizumab)
237# (antibody, human IgG1, kappa, V domains shown, also called Sample # 237) VH: QVQLQESGPGLVRPSQTLSLTCTVSGYSITSDHAWSWVRQPPGRGLEWIGYISYSGMTTYNPSLKSRVTMLRDTSKNQFSLRLSSVTAADTAVYYCARCLARTTAMDYWGQGSLVTVSS VL: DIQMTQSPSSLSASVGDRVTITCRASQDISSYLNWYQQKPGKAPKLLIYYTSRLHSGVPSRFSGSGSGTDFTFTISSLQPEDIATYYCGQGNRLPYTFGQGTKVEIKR	52.2 fold vs 25 (Tocilizumab)
59# (antibody, human IgG1, kappa, V domains shown, also called Sample # 59) VH: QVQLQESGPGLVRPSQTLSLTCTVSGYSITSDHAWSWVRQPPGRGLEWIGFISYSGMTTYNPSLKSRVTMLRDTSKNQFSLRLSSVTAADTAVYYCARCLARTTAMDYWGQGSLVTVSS VL: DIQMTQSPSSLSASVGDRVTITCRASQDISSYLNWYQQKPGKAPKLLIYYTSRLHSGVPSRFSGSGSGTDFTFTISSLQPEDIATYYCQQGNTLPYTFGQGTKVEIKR	11.2 fold vs 25 (Tocilizumab)
